# experiment.summary: Metabolic stability in mouse liver microsomes
# Assay type: in vitro ADME
# test.context: male, mouse, microsomes, pH 7.4, Predicted CL int, iv vivo
# Description: FMO was deactivated by heating liver microsomes at 45°C for 5 min. […] (1) metabolic clearance is the major mechanism of clearance; (2) liver is the major organ of clearance; and (3) oxidation is the major metabolic pathway. CLint,in vitro=k / Cmicrosomes , Scaled CLint,in vivo=CLint,in vitro×microsomes yield×liver weight, where Cmicrosomes means the experimental protein concentration (0.5 mg/mL) in the incubation system.

{"smiles.notation": "C[C@H](Nc1ncnc(N)c1C#N)c1cc2ncc(Cl)n2nc1-c1ccccc1", "CLint scaled at 1 µM": "50.4 mL/min/kg"}
